tgt: RXRβ (UniProt P28704)
method: receptor transactivation assay, RXRβ
Type: cell-based
Set-up: RXR Trans; other: RXRβ; first entry of cell
condition details: first entry of cell, read-out: RXR Trans. EC50 (nM) β
measured parameter: EC50 (nM)
Answer format: numeric, nM implied, no suffix.

What measured EC50 goes with CC(/C=C/[C@@H]1C[C@]1(C)c1cc(-c2ccc(F)cc2)c2c(c1)C(C)(C)CO2)=C\C(=O)O ?
4.55

Looking for the measured EC50 of CC(/C=C/[C@@H]1C[C@]1(C)c1cc(Br)c2c(c1)C(C)(C)CO2)=C\C(=O)O , can you help?
12

So what does the record say about EC50 for CC(/C=C/[C@@H]1C[C@]1(C)c1cc(-c2c(C)cccc2C)c2c(c1)C(C)(C)CO2)=C\C(=O)O ?
6.7

Item under review: CCCCC(=O)CCc1cc([C@@]2(C)C[C@H]2/C=C/C(C)=C/C(=O)O)cc2c1OCC2(C)C . Reported EC50?
2040
